Data credit: patent US6737383B1

- System: blackgrass
- assay.explanation: Test B pre/postemergence blackgrass
- Assay type: in vivo, Alopecurus myosuroides
- condition.description: Preemergence, Rate 125 g/ha
value.kind: Blackgrass plant response rating (0 to 10 scale)
Respond using a number only.

**Q:** Consider the compound C=CCn1c(=O)on(C(=O)N(c2ccc(Cl)cc2)C(C)C2CC2)c1=O (stereo not shown) [Compound 325] and give its measured Blackgrass plant response rating (0 to 10 scale).
**A:** 1

**Q:** Would you kindly repeat that for CCCCCCn1c(=O)on(C(=O)N(c2ccc(F)cc2)C(C)C)c1=O [Compound 389] ?
**A:** 2

**Q:** Would you kindly repeat that for Cc1c(-n2c(=O)on(C(=O)N(c3ccc(Cl)cc3)C(C)C)c2=O)ccc2ccccc12 [Compound 336] ?
**A:** 0

**Q:** Would you kindly repeat that for CC(C)n1c(=O)on(C(=O)N(c2ccc(Cl)cc2Cl)C2CCC2)c1=O [Compound 319] ?
**A:** 0

**Q:** Would you kindly repeat that for Cc1nsc(Cl)c1Cn1c(=O)on(C(=O)N(c2ccccc2)C(C)C)c1=O [Compound 374] ?
**A:** 2

**Q:** Would you kindly repeat that for C=CCn1c(=O)on(C(=O)N(CC)C2CCCCC2)c1=O [Compound 307] ?
**A:** 0

**Q:** Would you kindly repeat that for CC(C)C(C)n1c(=O)on(C(=O)N(c2ccccc2)C(C)C)c1=O (stereo not shown) [Compound 355] ?
**A:** 4
